- Tested on: SNI mice
- TEST PROTOCOL: Thermal hyperalgesia (Plantar Test Apparatus, paw withdrawal latency) in spared nerve injury mice
- Format: in vivo
- CONDITION DESCRIPTION: SNI mice, 2.5 mg/kg i.p. daily, DAY 3
// reported THERMAL WITHDRAWAL LATENCY per item
EXPERIMENTAL READOUT: THERMAL WITHDRAWAL LATENCY (s)

- COMPOUND: "C=C(C)[C@@H]1CCC(C)=C[C@H]1c1c(O)cc(CCCCC)cc1O [CBD, cannabidiol, reference compound]"
  REPORTED RESULT: 3.5
- COMPOUND: "CCCc1cc(O)c2c(c1)OC(C)(C)[C@@H]1CCC(C)=C[C@@H]21 [THCV, tetrahydrocannabivarin]"
  REPORTED RESULT: 3.8
- COMPOUND: "CCCCCc1cc(O)c2c(c1)OC(C)(CCC=C(C)C)C=C2 (centres unmarked)"
  REPORTED RESULT: 3.7
- COMPOUND: "CCCCCc1cc(O)c(C/C=C(\\C)CCC=C(C)C)c(O)c1"
  REPORTED RESULT: 5.5
- COMPOUND: "C=C(C)[C@@H]1CCC(C)=C[C@H]1c1c(O)cc(CCC)cc1O"
  REPORTED RESULT: 3.8

* * *

// reported THERMAL WITHDRAWAL LATENCY per item
- System: SNI mice
- TEST PROTOCOL: Thermal hyperalgesia (Plantar Test Apparatus, paw withdrawal latency) in spared nerve injury mice
- Type: in vivo
- CONDITION DESCRIPTION: SNI mice, 2.5 mg/kg i.p. daily, DAY 7

- COMPOUND: "CCCCCc1cc(O)c(C/C=C(\\C)CCC=C(C)C)c(O)c1"
  THERMAL WITHDRAWAL LATENCY [s]: 5.4
- COMPOUND: "CCCc1cc(O)c2c(c1)OC(C)(C)[C@@H]1CCC(C)=C[C@@H]21 [THCV, tetrahydrocannabivarin]"
  THERMAL WITHDRAWAL LATENCY [s]: 9.8
- COMPOUND: "CCCCCc1cc(O)c2c(c1)OC(C)(CCC=C(C)C)C=C2 (centres unmarked)"
  THERMAL WITHDRAWAL LATENCY [s]: 4.8
- COMPOUND: "C=C(C)[C@@H]1CCC(C)=C[C@H]1c1c(O)cc(CCCCC)cc1O [CBD, cannabidiol, reference compound]"
  THERMAL WITHDRAWAL LATENCY [s]: 4.2
- COMPOUND: "C=C(C)[C@@H]1CCC(C)=C[C@H]1c1c(O)cc(CCC)cc1O"
  THERMAL WITHDRAWAL LATENCY [s]: 6.4

* * *

- Tested on: SNI mice
- TEST PROTOCOL: Mechanical allodynia (Dynamic Plantar Aesthesiometer, paw withdrawal threshold) in spared nerve injury mice
- Assay type: in vivo
- CONDITION DESCRIPTION: both of the doses tested (2.5 and 5 mg/kg)
- Protocol: Peripheral neuropathic pain is produced by multiple etiological factors that initiate a number of diverse mechanisms at different sites and in different disease states. Spared nerve injury (SNI) consists of partial ligation and transaction of the sciatic nerve which evolves in neuropathic pain whose typical manifestations are represented by thermal hyperalgesia and tactile allodynia. […] Mechanical allodynia was measured by using Dynamic Plantar Anesthesiometer (Ugo Basile, Varese, Italy). […]
EXPERIMENTAL READOUT: overall efficacy, mechanical withdrawal

- COMPOUND: "CCCCCc1cc(O)c2c(c1)OC(C)(CCC=C(C)C)C=C2 (centres unmarked)"
  EXPERIMENTAL READOUT: "overall efficacy, mechanical withdrawal"
  REPORTED RESULT: "relatively ineffective"
- COMPOUND: "C=C(C)[C@@H]1CCC(C)=C[C@H]1c1c(O)cc(CCCCC)cc1O [CBD, cannabidiol, reference compound]"
  EXPERIMENTAL READOUT: "overall efficacy, mechanical withdrawal"
  REPORTED RESULT: "relatively ineffective"
- COMPOUND: "CCCc1cc(O)c2c(c1)OC(C)(C)[C@@H]1CCC(C)=C[C@@H]21 [THCV, tetrahydrocannabivarin]"
  EXPERIMENTAL READOUT: "overall efficacy, mechanical withdrawal"
  REPORTED RESULT: "good efficacy"
- COMPOUND: "CCCCCc1cc(O)c(C/C=C(\\C)CCC=C(C)C)c(O)c1"
  EXPERIMENTAL READOUT: "overall efficacy, mechanical withdrawal"
  REPORTED RESULT: "good efficacy"
